- Test system: LNCaP cells
- Assay Text: MTT cell proliferation assay, 7 d, LNCaP
- Type: cell-based, human
- Measurement Conditions: Homo sapiens, LNCaP, 168 h, 7 d treatment, read-out: GI50 LNCaP
Readout Label: GI50 (µM)
Could you give me the number in µM? Just the number is fine.

Please review the following examples before continuing.
Compound	GI50 / µM
CC(=O)O[C@H]1CC[C@@]2(C)C(=CC[C@@H]3[C@@H]2CC[C@]2(C)C(c4cccnc4)=CC[C@@H]32)C1 [AA, Abiraterone acetate, reference compound]	2.45
CC1=C(/C=C/C(C)=C/C=C/C(C)=C/C(=O)O)C(C)(C)CCC1n1ccnc1 (stereo not drawn) [VN/14-1]	11.3
CC1=C(/C=C/C(C)=C/C=C/C(C)=C/C(=O)Nc2ccc(O)cc2)C(C)(C)CCC1n1ccnc1 (stereo not drawn) [VN/66-1]	4.67
CC1=C(/C=C/C(C)=C/C=C/C(C)=C/C(=O)Nc2cc(C(F)(F)F)ccc2C(F)(F)F)C(C)(C)CCC1n1ccnc1 (stereo not drawn) [VNLG-146]	57.5
CC1=C(/C=C/C(C)=C/C=C/C(C)=C/C(=O)NC(C)(C)C)C(C)(C)CCC1n1ccnc1 (stereo not drawn) [VNLG-145]	2.45
CC(O)(CS(=O)(=O)c1ccc(F)cc1)C(=O)Nc1ccc(C#N)c(C(F)(F)F)c1 (stereo not drawn) [Casodex, reference compound]	2.61
CC1=C(/C=C/C(C)=C/C=C/C(C)=C/C(=O)Nc2ccccc2)C(C)(C)CCC1n1ccnc1 (stereo not drawn) [VNLG-153]	3.23
CC1=C(/C=C/C(C)=C/C=C/C(C)=C/C(=O)O)C(C)(C)CCC1 [ATRA, all-trans-retinoic acid, reference compound]	47.9

For record CC1=C(/C=C/C(C)=C/C=C/C(C)=C/C(=O)Nc2ccccc2O)C(C)(C)CCC1n1ccnc1 (stereo not drawn) [VNLG-147] the listed GI50 is 1.86

The compound identified as CC1=C(/C=C/C(C)=C/C=C/C(C)=C/C(=O)Nc2ccc(O)cc2)C(C)(C)CCC1 [Compound 4-HPR, 4-hydroxyphenyl retinamide, reference compound] registered its GI50 at 2.69

Field GI50 (entry CC1=C(/C=C/C(C)=C/C=C/C(C)=C/C(=O)Nc2ncnc3[nH]cnc23)C(C)(C)CCC1n1ccnc1 (stereo not drawn) [VNLG-148] ) reads 22.9

Data point: CC1=C(/C=C/C(C)=C/C=C/C(C)=C/C(=O)Nc2ccc(F)cc2)C(C)(C)CCC1n1ccnc1 (racemic) [VNLG-152] ; GI50 = 2.5
